Listing of entries alongside the reported Drug excretion.
# assay.name: Drug excretion in male Sprague-Dawley rat feces treated with [14C]-AMG 221 at 2 mg/kg, po measured over 24 hrs by LC-MS/HPLC radiometric analysis
# Format: ADME, organism-based
# Parameters: dose 2 mg/kg, route oral
# assay.conditions: in vivo
Only the number, expressed in %, is required.

Example entries and their recorded answers appear below.
>>> print(df.to_string())
                                   compound    readout_name  unit_abbrev  meas_value
0  C[C@H](CO)[C@]1(C)SC(N[C@H]2C[C@H]3C[C@@H]2C[C@@H]3O)=NC1=O  Drug excretion            %         8.3
1  C[C@@H](CO)[C@]1(C)SC(N[C@H]2C[C@H]3C[C@@H]2[C@H](O)C3)=NC1=O  Drug excretion            %         8.3
2  CC(O)(CO)[C@]1(C)SC(N[C@H]2C[C@@H]3CC[C@H]2C3)=NC1=O (stereo partly drawn)  Drug excretion            %         8.3
3  C[C@H](CO)[C@]1(C)SC(N[C@H]2C[C@H]3C[C@@H]2C[C@H]3O)=NC1=O  Drug excretion            %         8.3
4  CC(C)(O)[C@]1(C)SC(N[C@H]2C[C@H]3C[C@@H]2[C@H](O)C3)=NC1=O  Drug excretion            %         8.3
5  C[C@@H](CO)[C@]1(C)SC(N[C@H]2C[C@H]3C[C@@H]2C[C@@H]3O)=NC1=O  Drug excretion            %         8.3

Entry `CC(C)[C@]1(C)SC(N[C@H]2C[C@H]3C[C@@H]2C[C@@H]3O)=NC1=O` — recorded Drug excretion = 17

Drug excretion recorded for this compound, `CC(C)(O)[C@]1(C)SC(N[C@H]2C[C@H]3C[C@@H]2C[C@H]3O)=NC1=O` , is 8.3

// Drug excretion lookup, compound = `CC(C)(O)[C@]1(C)SC(N[C@H]2C[C@@H]3CC[C@H]2C3)=NC1=O` , result: 29

###

Here, each record is paired with measured Retention_time data.
# assay.name: Retention time of the compound in Sprague-Dawley rat urine treated with [14C]-AMG 221 at 2 mg/kg, po measured over 24 hrs by LC-MS/HPLC radiometric analysis
# Type: ADME, organism-based
# Design: dose 2 mg/kg, route oral
# assay.conditions: in vivo
Report as a plain number; the unit min is understood.

Example entries and their recorded answers appear below.
>>> df
                              line_notation    readout_name  unit_abbrev  meas_value
0  C[C@H](CO)[C@]1(C)SC(N[C@H]2C[C@H]3C[C@@H]2CC3=O)=NC1=O  Retention_time          min         9.2
1  C[C@@H](CO)[C@]1(C)SC(N[C@H]2C[C@H]3C[C@@H]2CC3=O)=NC1=O  Retention_time          min        14.1
2  C[C@@H](CO)[C@]1(C)SC(N[C@H]2C[C@H]3C[C@@H]2[C@H](O)C3)=NC1=O  Retention_time          min        15.1
3  CC(C)(O)[C@]1(C)SC(N[C@H]2C[C@H]3C[C@@H]2CC3=O)=NC1=O  Retention_time          min        20.7
4  C=C(C)[C@]1(C)SC(N[C@H]2C[C@H]3C[C@@H]2C[C@@H]3O)=NC1=O  Retention_time          min        27.9

# context switch: different compound, same Retention_time
Given item `C[C@H](CO)[C@]1(C)SC(N[C@H]2C[C@H]3C[C@@H]2C[C@H]3O)=NC1=O` , the value recorded as its Retention_time is 8.5
